assay: Toxicity (LD-50 and LD-0), i.p. route in the mouse; assay type: in vivo; conditions: in vivo, ip
LD50 values, listed per item
// note: answer is a bare numeric in mg/kg

Solved entries (count: 2):
Cc1ccc(C(=O)c2cc(N)ccc2N2CCC(C)CC2)c(C)c1    750
CC1CCN(c2ccc(Cl)cc2C(=O)c2ccc(Cl)cc2)CC1    1800

Input line: Please give the measured LD50 for this compound: CC1CCN(c2ccccc2C(=O)c2ccc(Cl)cc2)CC1
Output line: 1800

Input line: Please give the measured LD50 for this compound: CC1CCN(c2ccc(N)cc2C(=O)c2ccc(Cl)cc2)CC1
Output line: 1300
